test: Novel Modifiers of Survival Motor Neuron (SMN) Protein: Gene Identification via Genome-wide siRNA Screen; conditions: HEK293T SMN2-luciferase reporter, siRNA knockdown, 72 h; actives lie on both sides;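 further: luminescence tracks full-length SMN protein made from the SMN2 reporter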
In all, about 31,000 sequences went through this assay and about 1,400 (4.5%) were called active. Shown is part of a subset that was picked to be rich in actives.
Each entry below lists one item and its recorded median seed-adjusted z-score value.

Examples with their reported median seed-adjusted z-score follow.
INSERT INTO assay_data (sequence, result) VALUES
  ('GGAUCUGCAUAGUGACCAATT against PSMB1', '-0.35 (inactive)'),
  ('CAUCAAUGAGGUAUACUAUTT against DYRK1B', '0.29 (inactive)'),
  ('GGCGAACUGUUUUAGAAGATT against CCNB2', '0.0328 (inactive)'),
  ('CAAGAUGCUGGAUAAGGAATT against GYS1', '0.874 (inactive)'),
  ('GCCCUAAAGGAGAAAGUCATT against MAT2A', '-1.9 (active)');

Which median seed-adjusted z-score value belongs to AGACCAAGAGCGCAUCAAATT against JUNB ?
-0.224 (inactive)

Check GAGUAUUCUGAGUACAUGATT against ZFP42 too.
-0.537 (inactive)

Check CCAAGGACCUGGUCUGAAATT against CUGBP1 too.
0.086 (inactive)

Check GAGUAGCAGGAAAAACGAATT against SNX13 too.
0.253 (inactive)

---

experiment: Novel Modifiers of Survival Motor Neuron (SMN) Protein: Gene Identification via Genome-wide siRNA Screen; conditions: HEK293T SMN2-luciferase reporter, siRNA knockdown, 72 h; actives lie on both sides;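 further: luminescence tracks full-length SMN protein made from the SMN2 reporter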
About 1,400 (4.5%) of roughly 31,000 sequences were called active. This excerpt belongs to a sample that is enriched for actives.
Grouping key: median seed-adjusted z-score. Bins: lowest = under -0.1, middle = from -0.1 up to 0.3, highest = 0.3 and over

INSERT INTO results (sequence, label_value) VALUES
  ('GAACAACCCUAACCCAAGATT against ITGAM', 'lowest');

Now, please, on to the next sequence.
Which of the defined bands does the recorded median seed-adjusted z-score of CCUGAACAUUGGACCCUGUTT against CPSF1 sit within?
highest

---

Each entry below lists one item and its recorded median seed-adjusted z-score value.
experiment: Novel Modifiers of Survival Motor Neuron (SMN) Protein: Gene Identification via Genome-wide siRNA Screen; details: HEK293T SMN2-luciferase reporter, siRNA knockdown, 72 h; actives lie on both sides;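 further: luminescence tracks full-length SMN protein made from the SMN2 reporter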
Hit rate of the full screen: of about 31,000 sequences, about 1,400 (4.5%) were called active. The sample as a whole holds a higher share of actives than the screen did.
Give your answer as a number; write no unit.

INSERT INTO assay_data (sequence, recorded_number) VALUES
  ('CGUCUUUCCAGAAUUCAAATT against HGS', 1.16);

Here is another sequence to look at.
Which median seed-adjusted z-score value belongs to CUAAGAUGGUUAUCAAGAATT against SLC1A2 ?
0.249

---

assay: Novel Modifiers of Survival Motor Neuron (SMN) Protein: Gene Identification via Genome-wide siRNA Screen; details: HEK293T SMN2-luciferase reporter, siRNA knockdown, 72 h; actives lie on both sides;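 further: luminescence tracks full-length SMN protein made from the SMN2 reporter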
The campaign covered roughly 31,000 sequences. About 1,400 (4.5%) were called active. The full list was thinned out, with actives kept by preference.
Each entry below lists one item and its recorded median seed-adjusted z-score value.
Give your answer as a number; write no unit.

Examples with their reported median seed-adjusted z-score follow.
INSERT INTO assay_data (sequence, recorded_number) VALUES
  ('GGAAGGCUCCAAACGGAAATT against PBRM1', -0.118),
  ('ACGGCUCUGUGGACACAGATT against GPR78', 0.607),
  ('GGAUGUAUUGUCGCCUGUATT against RENBP', 0.587),
  ('GGACAUUGCUGAUCGCUUUTT against DMC1', -0.00876),
  ('CAGCUACGGAAGAACCUGATT against PHF21A', 0.179),
  ('CGGUUGAACUUCGAAAUAUTT against NF1', -0.36),
  ('CCUUGCCUCUAUGAGAUCATT against CHCHD2', 0.0884),
  ('GGACACCUGUGAACCGCAUTT against ARID3A', -1.11),
  ('CGUGGGAUAUGUUGACGGATT against BTNL3', 0),
  ('GCAAGAAGAGAUUAGCAAATT against EIF2C2', -0.183);

Which median seed-adjusted z-score value belongs to GCAUCAUCGGUACCCAGUUTT against MPO ?
-0.223

Check GCAAGGCAAUGCAAACGAATT against DDX43 too.
-0.452
